target: Free fatty acid receptor 1 (Homo sapiens, UniProt O14842); assay: Agonist activity at human FFA1 expressed in human 1321N1 cells by calcium fluorescence assay relative to 3-(4-(benzyloxy)phenyl)propionic acid; type: functional, cell-based
Sequence (O14842 whole entry): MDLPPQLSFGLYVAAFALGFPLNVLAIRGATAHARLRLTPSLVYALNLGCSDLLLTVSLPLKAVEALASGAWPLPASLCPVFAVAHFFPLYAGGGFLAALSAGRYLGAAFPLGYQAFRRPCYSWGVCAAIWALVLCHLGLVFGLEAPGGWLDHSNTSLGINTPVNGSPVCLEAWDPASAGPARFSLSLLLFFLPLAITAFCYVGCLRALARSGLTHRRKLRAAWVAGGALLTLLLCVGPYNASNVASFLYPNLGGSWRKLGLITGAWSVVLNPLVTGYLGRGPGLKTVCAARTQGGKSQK
measurement.label: Activity (%)
Write the number in % without appending the unit.

[[record]]
molecule_smiles = "O=C(O)CCc1ccc(C#Cc2cccc([N+](=O)[O-])c2)cc1"
experimental_value = 94


Attention now shifts to the item below.
Prompt: Lab request: please report Activity under test system Free fatty acid receptor 1 (Homo sapiens, UniProt O14842) for Cc1ccc(C#Cc2ccc(CCC(=O)O)cc2)cc1
Completion: 99

* * *

Below, each of the compounds is paired with its reported EC50 value.
target: Free fatty acid receptor 1 (Homo sapiens, UniProt O14842); experiment: Agonist activity at human FFA1 expressed in human 1321N1 cells by calcium fluorescence assay; assay type: functional, cell-based; conditions: read-out: pEC50 (converted)
Write the number in nM without appending the unit.

These recorded examples may help you get a feel for the data.
[[record]]
molecule_smiles = "Cc1ccccc1C#Cc1ccc(OCC(=O)O)cc1"
measurement_label = "EC50"
result_units = "nM"
experimental_value = 3720

[[record]]
molecule_smiles = "O=C(O)CCc1ccc(C#Cc2cccc([N+](=O)[O-])c2)cc1"
measurement_label = "EC50"
result_units = "nM"
experimental_value = 58.9


Prompt: Which measured EC50 value corresponds to O=C(O)COc1ccc(C#Cc2ccccc2)cc1 ?
Completion: 1260

Prompt: Which measured EC50 value corresponds to O=C(O)COc1ccc(C#Cc2cccc(O)c2)cc1 ?
Completion: 5620

Prompt: Which measured EC50 value corresponds to O=C(O)CCc1ccc(C#Cc2cccc3ccccc23)cc1 ?
Completion: 85.1

Prompt: Which measured EC50 value corresponds to Cc1cccc(C#Cc2ccc(OCC(=O)O)cc2)c1 ?
Completion: 513

Prompt: Which measured EC50 value corresponds to Cc1ccc(C#Cc2ccc(CCC(=O)O)cc2)cc1 ?
Completion: 107

* * *

target: Free fatty acid receptor 1 (Homo sapiens, UniProt O14842); assay: Agonist activity at human FFA1 expressed in human 1321N1 cells by calcium fluorescence assay; assay type: functional, cell-based; conditions: read-out: EC50
Below, each of the molecules is paired with its reported EC50 value.
Write the number in nM without appending the unit.

[[record]]
molecule_smiles = "O=C(O)CCc1ccc(C#Cc2ccccc2)cc1"
target_system = "Free fatty acid receptor 1 (Homo sapiens, UniProt O14842)"
experimental_value = 96


Attention now shifts to the item below.
Prompt: Which measured EC50 value corresponds to Cc1ccccc1C#Cc1ccc(CCC(=O)O)cc1 ?
Completion: 32

* * *

target: Free fatty acid receptor 1 (Homo sapiens); assay: Agonist activity at human FFA1 expressed in human 1321N1 cells by calcium fluorescence assay relative to 3-(4-(benzyloxy)phenyl)propionic acid; type: functional, cell-based
Below, each of the molecules is paired with its reported Activity value.
Write the number in % without appending the unit.

These recorded examples may help you get a feel for the data.
[[record]]
molecule_smiles = "Cc1ccccc1C#Cc1ccc(CCC(=O)O)cc1"
measurement_label = "Activity"
experimental_value = 105

[[record]]
molecule_smiles = "O=C(O)COc1ccc(C#Cc2cccc(O)c2)cc1"
measurement_label = "Activity"
experimental_value = 86

[[record]]
molecule_smiles = "O=Cc1cccc(C#Cc2ccc(CCC(=O)O)cc2)c1"
measurement_label = "Activity"
experimental_value = 94

[[record]]
molecule_smiles = "O=C(O)CCc1ccc(C#Cc2cccc3ccccc23)cc1"
measurement_label = "Activity"
experimental_value = 100

[[record]]
molecule_smiles = "Nc1cccc(C#Cc2ccc(CCC(=O)O)cc2)c1"
measurement_label = "Activity"
experimental_value = 96

[[record]]
molecule_smiles = "Cc1cc(C)cc(C#Cc2ccc(CCC(=O)O)cc2)c1"
measurement_label = "Activity"
experimental_value = 101


Prompt: Which measured Activity value corresponds to O=C(O)CCc1ccc(C#Cc2ccccc2)cc1 ?
Completion: 106

* * *

Below, each of the molecules is paired with its reported Activity value.
biological target: Free fatty acid receptor 1 (Homo sapiens); assay: Agonist activity at human FFA1 expressed in human 1321N1 cells by calcium fluorescence assay relative to 3-(4-(benzyloxy)phenyl)propionic acid; type: functional, cell-based
Write the number in % without appending the unit.

Prompt: Which measured Activity value corresponds to Cc1ccccc1C#Cc1ccc(OCC(=O)O)cc1 ?
Completion: 96

Prompt: Which measured Activity value corresponds to O=C(O)CCc1ccc(C#Cc2cccc(CO)c2)cc1 ?
Completion: 103

Prompt: Which measured Activity value corresponds to O=C(O)COc1ccc(C#Cc2ccccc2)cc1 ?
Completion: 104

Prompt: Which measured Activity value corresponds to Cc1cccc(C#Cc2ccc(OCC(=O)O)cc2)c1 ?
Completion: 113

Prompt: Which measured Activity value corresponds to C#Cc1cccc(C#Cc2ccc(CCC(=O)O)cc2)c1 ?
Completion: 100

Prompt: Which measured Activity value corresponds to Cc1cccc(C#Cc2ccc(CCC(=O)O)cc2)c1C ?
Completion: 108

* * *

biological target: UniProt O14842; experiment: Agonist activity at human FFA1 expressed in human 1321N1 cells by calcium fluorescence assay relative to 3-(4-(benzyloxy)phenyl)propionic acid; type: functional, cell-based
measurement.label: Activity (%)
Write the number in % without appending the unit.

These recorded examples may help you get a feel for the data.
[[record]]
molecule_smiles = "O=C(O)CCc1ccc(C#Cc2cccc(C(F)(F)F)c2)cc1"
measurement_label = "Activity"
result_units = "%"
experimental_value = 98

[[record]]
molecule_smiles = "N#Cc1cccc(C#Cc2ccc(CCC(=O)O)cc2)c1"
measurement_label = "Activity"
result_units = "%"
experimental_value = 92


Attention now shifts to the item below.
Prompt: Which measured Activity value corresponds to Cc1cccc(C#Cc2ccc(CCC(=O)O)cc2)c1 ?
Completion: 109
